Assay: Detection of PK in Beagle dogs
Assay type: in vivo
Details: male, dog, po, p.o. (gavage), 1 mg/Kg, plasma
measurement_name: AUC(0-t) (ng·h/mL)
Write it as a number; the unit ng·h/mL goes unstated.

According to the records, this molecule Cc1c(C2CCN(S(=O)(=O)c3ccc(F)cc3)CC2)c2cc(F)ccc2n1CC(=O)O [Example 24] displays AUC(0-t) of 6600

----------
Assay: Detection of PK in Beagle dogs
Assay type: in vivo
Settings: male, dog, po, p.o. (gavage), 1 mg/Kg, plasma
measurement_name: AUC(0-inf) (ng·h/mL)
Write it as a number; the unit ng·h/mL goes unstated.

According to the records, this molecule Cc1c(C2CCN(S(=O)(=O)c3ccc(F)cc3)CC2)c2cc(F)ccc2n1CC(=O)O displays AUC(0-inf) of 6920
